# Assay Notes: Clearance in Wistar Han rat hepatocytes assessed as per gram tissue at 0.5 uM measured up to 1 hr by LC-MS/MS analysis
# Type: ADME, cell-based, Hepatocyte
Parameter: CLH (mL/min/g)

1 = CNC(=O)c1cc(C(=O)NC2CC2)cc2c1O[C@H](CF)[C@H]2c1ccccc1
2 = CNC(=O)c1cc(C(=O)N[C@@H]2[C@@H]3COC[C@@H]32)cc2c1O[C@H](CF)[C@H]2c1ccccc1
Form field 'greater CLH' accepts 1 or 2 ; which applies? Record your answer as the label of the chosen record.
1
(1: 3.2 mL/min/g, 2: 1.76 mL/min/g)

###

# Assay Notes: Renal clearance in Wistar Han rat at 1 mg/kg administered as iv infusion for 1 hr and measured up to 24 hrs by LC-MS/MS analysis
# Assay type: ADME, organism-based
# Cond: in vivo
Parameter: CL renal (mL/min/kg)
Field format: number, assumed mL/min/kg, no unit text.

Field request: CL renal | item: CNC(=O)c1cc(C(=O)N[C@@H]2[C@@H]3COC[C@@H]32)cc2c1O[C@H](CF)[C@H]2c1ccccc1
4

###

# Assay Notes: Oral bioavailability in Wistar Han rat at 3 mg/kg administered via gavage and measured up to 7 hrs by LC-MS/MS analysis
# Assay type: ADME, organism-based
# Cond: in vivo
Parameter: bioavailability (%)

1 = CNC(=O)c1cc(C(=O)NC2CC2)cc2c1O[C@H](CO)[C@H]2c1ccccc1
2 = CNC(=O)c1cc(C(=O)N[C@@H]2C[C@H]2CO)cc2c1O[C@H](CF)[C@H]2c1ccccc1
3 = CNC(=O)c1cc(C(=O)NCCC[C@H]2OC[C@H](N)CO2)cc2c1O[C@H](CF)[C@H]2c1ccccc1
Put the above entries in order of falling bioavailability. Response format: the labels, sorted as the prompt asks.
2, 3, 1

###

# Assay Notes: Volume of distribution at steady state in Wistar Han rat at 1 mg/kg administered as iv infusion for 1 hr and measured up to 24 hrs by LC-MS/MS analysis
# Format: ADME, organism-based
# Cond: in vivo, read-out: Vdss
Parameter: Vd (L/kg)
Field format: number, assumed L/kg, no unit text.

Field request: Vd | item: CNC(=O)c1cc(C(=O)N[C@@H]2[C@@H]3COC[C@@H]32)cc2c1O[C@H](CF)[C@H]2c1ccccc1
2.1

###

# Assay Notes: Chromatographic hydrophobicity index, log D of the compound in pH 7.4 ammonium acetate buffer/acetonitrile gradient by HPLC analysis
# Format: physicochemical
Parameter: CHI

Examples from the recorded data:
chem_smiles=CNC(=O)c1cc(C(=O)NC2CC2)cc2c1O[C@H](CO)[C@H]2c1ccccc1 test_value=2.53
chem_smiles=CNC(=O)c1cc(C(=O)NC)c(=O)n(Cc2ccccc2)c1 test_value=2.38
chem_smiles=CCNC(=O)c1cc(C(=O)NC)c(=O)n(Cc2ccccc2)c1 test_value=2.99
chem_smiles=CNC(=O)c1cc(C(N)=O)cc2c1O[C@H](C)[C@H]2c1ccccc1 test_value=3.28
chem_smiles=CCNC(=O)c1cc(C(=O)NC)c2c(c1)[C@H](c1ccccc1)[C@@H](C)O2 test_value=4.11
chem_smiles=CNC(=O)c1cc(C(=O)N[C@@H]2[C@@H]3COC[C@@H]32)cc2c1O[C@H](CF)[C@H]2c1ccccc1 test_value=3.56

1 = CNC(=O)c1cc(C(=O)N[C@H]2C[C@@H]2C)cc2c1O[C@H](CF)[C@H]2c1ccccc1
2 = CNC(=O)c1cc(C(=O)NCCC[C@H]2OC[C@H](N)CO2)cc2c1O[C@H](CF)[C@H]2c1ccccc1
Record comparison, field CHI: mark the lower of 1 and 2 . Record your answer as the label of the chosen record.
2
